Assay: Pharmacokinetic analysis of TG100-115 in serum
Format: in vivo, Balb/c mice
Details: Balb/c, mouse, intravenous, 5 mg/kg, read-out: t1/2 in vivo (converted)
Reported Property: half-life (min)
Answers are plain numbers, in min.

Which half-life value belongs to Nc1nc(N)c2nc(-c3cccc(O)c3)c(-c3cccc(O)c3)nc2n1 ?
13.2

====

Assay: Pharmacokinetic analysis of TG100-115 in serum
Assay type: in vivo, Balb/c mice
Conditions: mouse, iv, single i.v. dose of 5 mg/kg, Balb/c mice
Reported Property: concentration at 1 h (ng/mL)
Answers are plain numbers, in ng/mL.

Which concentration at 1 h value belongs to Nc1nc(N)c2nc(-c3cccc(O)c3)c(-c3cccc(O)c3)nc2n1 [TG100-115] ?
7.1

====

Test: Pharmacokinetic analysis of TG100-115 in serum
Format: in vivo, Balb/c mice
Conditions: mouse, iv, single i.v. dose of 5 mg/kg, Balb/c mice, read-out: half-life in mice in vivo (converted)
Reported Property: half-life

Which half-life value belongs to Nc1nc(N)c2nc(-c3cccc(O)c3)c(-c3cccc(O)c3)nc2n1 [TG100-115] ?
13.2 min

====

Test system: CD11b+ myeloid cell adhesion to VCAM-1
Assay: Chemoattractant-stimulated CD11b+ myeloid cell adhesion to VCAM-1 / endothelial cells (Example 9 adhesion assay)
Type: cell-based, mouse
Conditions: Mus musculus, Endothelial cell, IL-1β stimulated; read-out: IC50, CD11b+ cell adhesion to VCAM-1
Reported Property: IC50 (nM)
Answers are plain numbers, in nM.

Under CD11b+ myeloid cell adhesion to VCAM-1: IC50 value of Nc1nc(N)c2nc(-c3cccc(O)c3)c(-c3cccc(O)c3)nc2n1 [TG100-115] ?
281
